# credit: PubChem BioAssay

# System: Follistatin (Homo sapiens)
# Method Notes: follistatin binders on small-molecule microarrays, primary screen, biochemical, small-molecule microarray, 635/667 nm fluorescence (AID 1132)
# Setup Conditions: FST binding, 635 nm fluorescence, higher = more signal
composite z-score for assorted molecules

CCOC(=O)[C@H](Cc1ccccc1)NC(=O)CCC1CC(OC(=O)NCCc2ccc(F)cc2)CC2(CCCC(COC(=O)NCCOC)O2)O1 (some centres undefined)    1.01
O=C1[C@H]2[C@H]3[C@H](O)[C@H](O)CC(=NOC[C@@H](O)COCc4ccco4)[C@@H]3CC[C@H]2C(=O)N1C[C@@H]1CCCO1    0.907
CON=Cc1ccc(C(=O)N2[C@H](c3ccc(C)cc3)[C@@H](C)CC[C@H]2C(=O)OC)cc1    0.419

Okay, now this molecule:
Task: What value of measured composite z-score is listed for CCN1C(=O)[C@H]2[C@H]3[C@H](O)[C@H](O)CC(=O)[C@@H]3CC[C@H]2C1=O ?
Result: 0.468

---

# System: Focal adhesion kinase 1 (Homo sapiens) (UniProt Q05397)
# Sequence (Q05397 whole entry, looked up): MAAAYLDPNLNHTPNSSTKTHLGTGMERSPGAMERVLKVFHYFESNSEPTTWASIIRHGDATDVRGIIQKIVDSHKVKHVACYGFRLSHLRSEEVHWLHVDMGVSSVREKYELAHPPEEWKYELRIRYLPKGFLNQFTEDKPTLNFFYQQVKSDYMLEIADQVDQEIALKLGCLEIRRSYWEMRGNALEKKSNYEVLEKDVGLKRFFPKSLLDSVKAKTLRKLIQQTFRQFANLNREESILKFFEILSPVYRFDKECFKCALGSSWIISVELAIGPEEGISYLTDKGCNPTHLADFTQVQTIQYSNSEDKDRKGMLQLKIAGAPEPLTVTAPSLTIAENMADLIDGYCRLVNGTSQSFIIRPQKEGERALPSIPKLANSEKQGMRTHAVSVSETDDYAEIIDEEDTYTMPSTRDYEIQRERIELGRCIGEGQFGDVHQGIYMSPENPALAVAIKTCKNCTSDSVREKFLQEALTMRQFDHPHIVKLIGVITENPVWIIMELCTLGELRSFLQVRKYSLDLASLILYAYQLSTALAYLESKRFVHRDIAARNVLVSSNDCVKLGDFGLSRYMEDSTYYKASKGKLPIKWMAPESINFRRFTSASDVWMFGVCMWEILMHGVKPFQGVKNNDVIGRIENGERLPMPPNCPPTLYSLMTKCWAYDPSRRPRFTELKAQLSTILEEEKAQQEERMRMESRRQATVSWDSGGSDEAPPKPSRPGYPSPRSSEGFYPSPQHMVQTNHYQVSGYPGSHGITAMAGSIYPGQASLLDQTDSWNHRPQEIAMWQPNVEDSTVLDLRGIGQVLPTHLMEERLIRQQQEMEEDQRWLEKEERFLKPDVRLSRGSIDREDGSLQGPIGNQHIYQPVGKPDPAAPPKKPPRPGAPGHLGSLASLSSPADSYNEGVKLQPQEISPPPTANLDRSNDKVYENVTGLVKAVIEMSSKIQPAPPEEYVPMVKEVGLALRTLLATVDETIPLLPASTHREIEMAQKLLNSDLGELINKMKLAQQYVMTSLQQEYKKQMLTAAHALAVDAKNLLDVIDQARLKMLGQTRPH
# Method Notes: small-molecule microarray binders of FAK, primary screen, biochemical, 635/667 nm fluorescence, BSA, DTT (AID 1130);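 further: composite of spot emission at 667 nm and signal to noise over triplicate slides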
# Setup Conditions: PTK2 binding, 635 nm fluorescence, higher = more signal
Tag: Satisfied if measured composite z-score is not below 0.2, Not satisfied if it is.

COC(=O)[C@@H]1CC[C@@H](C)[C@H](c2ccc(Br)cc2)N1    Satisfied
COC(=O)[C@@H]1CC[C@H](C)[C@@H](c2ccc(C)cc2)N1C(=O)c1ccc(C=NO[C@H](C)c2cn([C@@H]3COC[C@H]3O)nn2)cc1    Not satisfied
CCOC(=O)[C@H](CC(C)C)NC(=O)CCC1CC(OC(=O)NCCc2ccc(F)cc2)CC2(CCCC(COC(=O)NCC(c3ccccc3)c3ccccc3)O2)O1 (some centres not stated)    Not satisfied
CCCNC(=O)OC[C@H]1O[C@H](CCON=Cc2ccc(C(=O)N3[C@H](c4ccc(C)cc4)[C@@H](C)CC[C@H]3C(=O)OC)cc2)C=C[C@@H]1Oc1ccc(OC)cc1    Satisfied

Task: Evaluate O=c1n(Cc2cc3c(cc2Cl)OCO3)c(=O)n2n1CC[C@@H]1C(=NOCc3ccccc3)[C@H]3O[C@H]3[C@@H](O)[C@@H]12 : composite z-score at minimum 0.2?
Result: Not satisfied

Task: // same read-out, input: O=C(NN=C1C[C@@H](O)[C@@H](O)[C@@H]2[C@@H]3C(=O)N(C[C@@H]4CCCO4)C(=O)[C@@H]3CC[C@H]12)OCc1ccccc1
Result: Not satisfied

Task: // same read-out, input: O=C1OCCC=C1C(O)CCc1ccccc1 (configuration not stated)
Result: Not satisfied

---

z-score for assorted compounds
# Method Notes: PSAC antagonists in infected red cells, primary screen, cell-based, P. falciparum Indochina, OD700, 18 h (AID 1157)
# Setup Conditions: P. falciparum Indochina infected erythrocytes, osmotic lysis OD700, 18 h; higher = more signal, called active from +8 up or from −8 down
Reply briefly: the number, and no unit.

For orientation, consider the following solved cases.
CC(CCN1CCCCc2nc(C)c(C)cc21)=NOC[C@@H](O)COCc1ccco1    0.343
Cc1ccc(S(=O)(=O)n2c3ccccc3c3nnc(C(=O)c4ccccc4)nc32)cc1    0.421
CC(C)=CCCC(C)=CCON=C1C[C@@H](O)[C@@H](O)[C@@H]2[C@@H]3C(=O)N(C(C)(C)C)C(=O)[C@@H]3CC[C@@H]12    0.821
COc1ccc(O[C@H]2C=C[C@@H](c3ccccc3)O[C@@H]2COC(=O)CCC(C)=NOC(C)CN2CCCc3nc(C)c(C)cc32)cc1 (some centres not stated)    0.563
COC(=O)CC=C[C@@H](C)[C@@H](C=NOC[C@H]1O[C@H](c2ccccc2)C=C[C@@H]1Oc1ccc(OC)cc1)OC    0.393

Task: What value of measured z-score is listed for COC(=O)[C@H]1[C@@H](O)[C@@]2(O)c3ccccc3O[C@@]2(c2ccccc2)[C@@H]1c1ccccc1 ?
Result: 0.148

Task: // same read-out, input: COc1ccc(O[C@H]2C=C[C@@H](c3ccccc3)O[C@@H]2CON=C(C)CCC(=O)OC[C@H]2O[C@H](c3ccccc3)C=C[C@@H]2Oc2ccc(OC)cc2)cc1
Result: 0.464
